// data source = patent US10030027B2

target: sGC α1/β1 heterodimer (Homo sapiens (Human), UniProt Q02108+Q02153); assay: Cell-based sGC functional assay (cyclic GMP assay for sGC activator: CASA assay); conditions: inflection point, 4P fit; CHO-K1/sGC cells; read-out: IP
Sequence (Q02108 whole entry): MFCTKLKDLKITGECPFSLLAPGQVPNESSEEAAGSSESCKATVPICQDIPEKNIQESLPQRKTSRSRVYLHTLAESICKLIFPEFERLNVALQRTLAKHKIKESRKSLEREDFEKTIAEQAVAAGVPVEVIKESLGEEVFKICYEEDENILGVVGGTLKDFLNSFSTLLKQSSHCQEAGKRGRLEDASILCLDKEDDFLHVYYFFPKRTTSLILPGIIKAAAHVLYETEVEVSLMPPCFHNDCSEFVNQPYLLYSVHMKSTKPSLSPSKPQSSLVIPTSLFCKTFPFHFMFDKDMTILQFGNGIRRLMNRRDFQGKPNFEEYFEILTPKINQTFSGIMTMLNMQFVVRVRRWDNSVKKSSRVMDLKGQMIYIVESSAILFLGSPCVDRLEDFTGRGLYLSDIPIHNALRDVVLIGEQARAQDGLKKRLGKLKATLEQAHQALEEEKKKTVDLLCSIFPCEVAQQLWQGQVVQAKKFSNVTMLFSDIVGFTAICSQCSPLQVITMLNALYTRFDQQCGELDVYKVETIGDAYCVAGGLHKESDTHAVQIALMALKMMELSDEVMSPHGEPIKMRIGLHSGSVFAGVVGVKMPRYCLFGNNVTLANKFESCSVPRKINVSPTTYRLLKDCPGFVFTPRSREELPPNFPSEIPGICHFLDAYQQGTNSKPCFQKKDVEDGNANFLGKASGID
Sequence (Q02153 whole entry): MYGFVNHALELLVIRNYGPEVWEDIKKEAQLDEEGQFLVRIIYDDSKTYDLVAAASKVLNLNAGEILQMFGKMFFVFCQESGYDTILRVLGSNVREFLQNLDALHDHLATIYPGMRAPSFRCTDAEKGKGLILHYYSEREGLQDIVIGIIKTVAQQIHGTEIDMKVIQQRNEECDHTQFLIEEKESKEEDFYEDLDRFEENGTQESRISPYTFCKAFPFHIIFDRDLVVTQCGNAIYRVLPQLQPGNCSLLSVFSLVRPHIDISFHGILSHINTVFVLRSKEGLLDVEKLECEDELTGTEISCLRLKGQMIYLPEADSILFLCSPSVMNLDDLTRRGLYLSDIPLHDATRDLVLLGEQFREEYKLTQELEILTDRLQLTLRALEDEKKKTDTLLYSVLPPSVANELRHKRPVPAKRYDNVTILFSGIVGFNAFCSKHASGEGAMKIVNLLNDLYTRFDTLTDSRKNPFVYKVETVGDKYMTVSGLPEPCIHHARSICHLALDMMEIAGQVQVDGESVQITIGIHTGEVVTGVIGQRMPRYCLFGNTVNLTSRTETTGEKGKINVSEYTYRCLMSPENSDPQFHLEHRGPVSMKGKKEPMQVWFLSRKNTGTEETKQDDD
metric.name: EC50 (nM)
Answers are plain numbers, in nM.

Worked examples follow.
{"compound": "C[C@@H](NC(=O)CCc1ccc([C@]2(C)C(=O)Nc3nc(-c4nn(Cc5ccccc5F)c5ncccc45)nc(N)c32)cc1)C(=O)O [Example 102B]", "EC50 / nM": 573}
{"compound": "C[C@@]1(c2nc(CCC(=O)O)cs2)C(=O)Nc2nc(-c3nn(CCCC(F)(F)F)c4ncccc34)nc(N)c21 [Example 88B]", "EC50 / nM": 1250}
{"compound": "CC(C)(Cc1csc([C@]2(C)C(=O)Nc3nc(-c4nn(Cc5ccc(F)cc5)c5cc(Cl)ccc45)nc(N)c32)n1)C(=O)O [Example 174A]", "EC50 / nM": 682}
{"compound": "CC1(c2nc(CCC(=O)O)co2)C(=O)Nc2nc(-c3nn(Cc4ccccc4F)c4ccccc34)nc(N)c21 (stereo not drawn) [Example 54A]", "EC50 / nM": 490}
{"compound": "CC[C@H](NC(=O)CCc1ccc([C@]2(C)C(=O)Nc3nc(-c4nn(Cc5ccccc5F)c5ncccc45)nc(N)c32)cc1)C(=O)O [Example 105B]", "EC50 / nM": 2160}

## Input Give me measured EC50, please, for this compound: CC1(c2ccc(/C=C/C(=O)O)cc2)C(=O)Nc2nc(-c3nn(Cc4ccccc4F)c4cc(Cl)ccc34)nc(N)c21 (stereo not drawn) [Example 218A]
## Output 301
